- systemName: G1 APOL1 (Homo sapiens, UniProt O14791, I384M/S342G)
- Construct: expressed in transfected cells
- Sequence (O14791 28-398 S342G/I384M): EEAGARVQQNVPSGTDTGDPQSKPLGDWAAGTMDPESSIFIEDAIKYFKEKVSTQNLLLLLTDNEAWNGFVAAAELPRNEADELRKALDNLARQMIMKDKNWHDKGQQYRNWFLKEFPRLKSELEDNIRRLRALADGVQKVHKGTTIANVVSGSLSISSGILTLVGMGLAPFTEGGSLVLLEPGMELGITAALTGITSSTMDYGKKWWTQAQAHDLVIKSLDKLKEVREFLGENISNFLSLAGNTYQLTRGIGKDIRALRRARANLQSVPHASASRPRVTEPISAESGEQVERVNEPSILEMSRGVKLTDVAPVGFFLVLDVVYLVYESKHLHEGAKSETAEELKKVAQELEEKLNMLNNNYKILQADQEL
- protocolSummary: Acute APOL1 Thallium Assay with inducible stable clones of HEK 293 cells
- Type: cell-based
- conditionInfo: HEK 293 T-Rex cells expressing G1 APOL1; read-out: Thallium Assay (IC50)
pIC50: −log10 of the molar value.
measurementType: pIC50

CC(O)CNC(=O)[C@H]1C[C@H](c2c(-c3ccc(F)cc3)[nH]c3c(F)cc(F)cc32)C1 (stereo partly shown) [Compound 167]; 6.00 to 6.60
O=C([C@H]1C[C@H](c2c(-c3ccc(F)cc3)[nH]c3c(F)cc(F)cc32)C1)N1CC[C@H](CO)C1 [Compound 140]; < 6.00
CC(CO)NC(=O)[C@H]1C[C@H](c2c(-c3ccc(F)cc3)[nH]c3c(F)cc(F)cc32)C1 (mixture of isomers) [Compound 13]; > 6.60
C[C@H](O)[C@H](CO)NC(=O)[C@H]1C[C@@H](c2c(-c3ccc(F)cc3)[nH]c3c(F)cc(F)cc32)C1 [Compound 245]; < 6.00
C[C@H](CO)N(C)C(=O)[C@H]1C[C@H](c2c(-c3ccc(F)cc3)[nH]c3c(F)cc(F)cc32)C1 [Compound 190]; 6.00 to 6.60

Dear colleague, could you send me pIC50 for each of the items below? Thanks.
1. O=C([C@H]1C[C@H](c2c(-c3ccc(F)cc3)[nH]c3c(F)cc(F)cc32)C1)N1CCOC(CO)C1 (stereo partly shown) [Compound 148]
2. NC(=O)C(CO)NC(=O)[C@H]1C[C@@H](c2c(-c3ccc(F)cc3)[nH]c3c(F)cc(F)cc32)C1 (stereo partly shown) [Compound 259]

["< 6.00", "< 6.00"]

Source: patent US12116343B2
